Origin of the recorded values: patent US8455475B2

Target: rat B1R (bradykinin receptor 1) (Rattus norvegicus, UniProt P97583)
Construct: expressed in transfected cells; host or cells: CHO K1 cells
Sequence (P97583 1-337): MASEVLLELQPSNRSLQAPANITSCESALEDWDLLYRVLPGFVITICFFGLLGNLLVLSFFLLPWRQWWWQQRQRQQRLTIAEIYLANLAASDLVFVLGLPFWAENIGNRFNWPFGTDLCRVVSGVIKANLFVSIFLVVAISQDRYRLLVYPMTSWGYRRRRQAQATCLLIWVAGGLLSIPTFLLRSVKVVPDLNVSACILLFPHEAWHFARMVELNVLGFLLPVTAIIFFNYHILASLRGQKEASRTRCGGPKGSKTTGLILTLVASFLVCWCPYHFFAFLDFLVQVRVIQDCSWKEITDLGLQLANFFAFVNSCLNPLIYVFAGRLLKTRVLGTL
Experiment: FLIPR Ca2+ assay (Fluo-4) on CHO K1 cells stably transfected with the B1R gene of the rat (rB1R cells): % inhibition at 10 μM / IC50, agonist Des-Arg9-bradykinin
Assay type: cell-based
Conditions: CHO-K1, rat B1R
measured.metric: inhibition at 10 µM (%)
Please give a number only; it is taken to be in %.

Solved entries (count: 3):
{"molecule": "Cc1cccc(Cl)c1C(=O)NC1CCc2ccc(C(=O)N3CCC4(CCN(Cc5ccc6ncccc6c5)CC4)C3)cc21 (stereo not shown) [IND_CC-764]", "measurement.units": "%", "inhibition at 10 µM": 71}
{"molecule": "CCn1cc(CN2CCC3(CC2)CCN(C(=O)c2ccc4c(c2)C(NC(=O)c2cccc(Cl)c2Cl)CC4)C3)c(C)n1 (stereo not shown) [IND_CC-742]", "measurement.units": "%", "inhibition at 10 µM": 50}
{"molecule": "O=C(NC1CCc2ccc(C(=O)N3CCC4(CCN(C(=O)Cc5ccc(Cl)cc5)CC4)C3)cc21)c1ccccc1Cl (stereo not shown) [IND_CC-577]", "measurement.units": "%", "inhibition at 10 µM": 96}

Recorded inhibition at 10 µM of O=C(NCc1ccccc1Cl)NC1CCc2ccc(C(=O)N3CCC4(CC3)CCN(c3ccncc3)C4)cc21 (stereo not shown) [Ind_CC-048] , please.
88

Recorded inhibition at 10 µM of COc1cc(C)c(S(=O)(=O)N[C@H]2CCCc3ccc(C(=O)N4CCC5(CC4)CCN(c4ccncc4)CC5)cc32)c(C)c1 [Example H-19] , please.
102

Recorded inhibition at 10 µM of Cc1nc(CN2CCC3(CC2)CCN(C(=O)c2ccc4c(c2)C(NC(=O)c2c(F)cccc2Cl)CC4)C3)c[nH]1 (stereo not shown) [IND_CC-736] , please.
93

Recorded inhibition at 10 µM of O=C(/C=C/c1ccccc1Cl)NC1CCc2ccc(C(=O)N3CCC4(CCN(c5ccncc5)CC4)C3)cc21 (stereo not shown) [Ind_CC-083] , please.
85

====

The compounds listed here are annotated with their inhibition at 10 µM.
Target: rat B1R (bradykinin receptor 1) (Rattus norvegicus, UniProt P97583)
Construct: expressed in transfected cells; host or cells: CHO K1 cells
Test: FLIPR Ca2+ assay (Fluo-4) on CHO K1 cells stably transfected with the B1R gene of the rat (rB1R cells): % inhibition at 10 μM / IC50, agonist Des-Arg9-bradykinin
Format: cell-based
Conditions: CHO-K1, rat B1R
Please give a number only; it is taken to be in %.

Solved entries (count: 6):
{"compound": "O=C(N[C@@H]1CCOc2c(F)cc(C(=O)N3CCC4(CCN(c5ccncc5)CC4)C3)cc21)c1ccccc1Cl", "system": "rat B1R (bradykinin receptor 1) (Rattus norvegicus, UniProt P97583)", "result.number": 103}
{"compound": "O=C(NC1CCc2ccc(C(=O)N3CCC4(CCN(C(=O)c5ccc(F)cc5Cl)CC4)C3)cc21)c1ccccc1Cl (stereo not shown)", "system": "rat B1R (bradykinin receptor 1) (Rattus norvegicus, UniProt P97583)", "result.number": 78}
{"compound": "Cc1ccccc1S(=O)(=O)N[C@@H]1CCc2ccc(C(=O)N3CCC4(CCN(c5ccncc5)CC4)C3)cc21", "system": "rat B1R (bradykinin receptor 1) (Rattus norvegicus, UniProt P97583)", "result.number": 101}
{"compound": "O=C(NC1CCc2ccc(C(=O)N3CCC4(CCN(Cc5ccccn5)CC4)CC3)cc21)c1cc(C(F)(F)F)ccc1Cl (stereo not shown)", "system": "rat B1R (bradykinin receptor 1) (Rattus norvegicus, UniProt P97583)", "result.number": 73}
{"compound": "O=C(c1ccc2c(c1)[C@H](NS(=O)(=O)c1c(Cl)cccc1C(F)(F)F)CC2)N1CCC2(CCN(c3ccncc3)CC2)C1", "system": "rat B1R (bradykinin receptor 1) (Rattus norvegicus, UniProt P97583)", "result.number": 103}
{"compound": "CC1(C)Cc2ccc(C(=O)N3CCC4(CC3)CCN(c3ccncc3)CC4)cc2C1NS(=O)(=O)c1ccccc1Cl (stereo not shown)", "system": "rat B1R (bradykinin receptor 1) (Rattus norvegicus, UniProt P97583)", "result.number": 103}

Please examine the following record next.
Recorded inhibition at 10 µM of Cn1cncc1CN1CCC2(CC1)CCN(C(=O)c1ccc3c(c1)C(NC(=O)c1ccccc1Cl)CC3)CC2 (stereo not shown) , please.
87

====

Molecular target: rat B1R (bradykinin receptor 1) (Rattus norvegicus)
Construct: expressed in transfected cells; host or cells: CHO K1 cells
Sequence (P97583 1-337): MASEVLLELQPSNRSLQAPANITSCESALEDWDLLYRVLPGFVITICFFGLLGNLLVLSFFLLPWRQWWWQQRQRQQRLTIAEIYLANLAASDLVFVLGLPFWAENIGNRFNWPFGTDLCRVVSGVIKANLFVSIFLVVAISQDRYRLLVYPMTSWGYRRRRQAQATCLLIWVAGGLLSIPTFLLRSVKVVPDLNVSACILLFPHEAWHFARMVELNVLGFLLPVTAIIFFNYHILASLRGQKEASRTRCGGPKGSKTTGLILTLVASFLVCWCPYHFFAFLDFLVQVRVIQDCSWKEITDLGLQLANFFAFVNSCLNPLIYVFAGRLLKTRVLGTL
Assay: FLIPR Ca2+ assay (Fluo-4) on CHO K1 cells stably transfected with the B1R gene of the rat (rB1R cells): % inhibition at 10 μM / IC50, agonist Des-Arg9-bradykinin
Format: cell-based
Conditions: CHO-K1, rat B1R
Would you mind labelling by inhibition at 10 µM? At or over 90% is 1, under is 0.

Consider the worked cases shown below.
{"molecule": "Cc1cccc(C)c1C(=O)NC1CC(C)(C)c2ccc(C(=O)N3CCC4(CC3)CCN(c3ccncc3)CC4)cc21 (stereo not drawn) [IND_CC-309]", "class.assignment": 1}
{"molecule": "Cc1noc(C)c1CN1CCC2(CC1)CCN(C(=O)c1ccc3c(c1)C(NC(=O)c1ccccc1Cl)CC3)CC2 (stereo not drawn) [IND_CC-532]", "class.assignment": 0}
{"molecule": "Cc1cc(F)cc(C)c1S(=O)(=O)NC1CCc2ccc(C(=O)N3CCC4(CC3)CCN(c3ccncc3)CC4)cc21 (stereo not drawn) [IND_CC-355]", "class.assignment": 0}

Let's switch to this molecule now.
// inclusive: inhibition at 10 µM at least 90%? input: O=C(NC1CCc2ccc(C(=O)N3CCC4(CCN(CCCc5ccc(F)cc5)CC4)C3)cc21)c1cc(Cl)ccc1F (stereo not drawn) [IND_CC-675]
0

====

Biological target: rat B1R (bradykinin receptor 1) (Rattus norvegicus)
Construct: expressed in transfected cells; host or cells: CHO K1 cells
Experiment: FLIPR Ca2+ assay (Fluo-4) on CHO K1 cells stably transfected with the B1R gene of the rat (rB1R cells): % inhibition at 10 μM / IC50, agonist Des-Arg9-bradykinin
Assay type: cell-based
Conditions: CHO-K1, rat B1R
The compounds listed here are annotated with their inhibition at 10 µM.
Please give a number only; it is taken to be in %.

Solved entries (count: 3):
{"compound": "O=C(NC1CCc2ccc(C(=O)N3CCC4(CCN(Cc5ccc6ncccc6c5)CC4)C3)cc21)c1sccc1Cl (stereo not shown)", "system": "rat B1R (bradykinin receptor 1) (Rattus norvegicus)", "measurement.units": "%", "inhibition at 10 µM": 57}
{"compound": "COc1ccc(CN2CCC3(CC2)CCN(C(=O)c2ccc4c(c2)C(NC(=O)c2ccccc2Cl)CC4)C3)cc1F (stereo not shown)", "system": "rat B1R (bradykinin receptor 1) (Rattus norvegicus)", "measurement.units": "%", "inhibition at 10 µM": 105}
{"compound": "O=C(N[C@@H]1CCc2ccc(C(=O)N3CCCC4(CCN(c5ccncc5)CC4)C3)cc21)c1ccccc1Cl", "system": "rat B1R (bradykinin receptor 1) (Rattus norvegicus)", "measurement.units": "%", "inhibition at 10 µM": 102}

Please examine the following record next.
Hello, I am looking for reported inhibition at 10 µM with rat B1R (bradykinin receptor 1) (Rattus norvegicus) for CN(C1CCc2ccc(C(=O)N3CCC4(CC3)CCN(c3ccncc3)CC4)cc21)S(=O)(=O)c1cc(Cl)ccc1Cl (stereo not shown) . Could you help?
99
